molecular target: human 11β-HSD2 (Homo sapiens); construct: stably transfected with the full-length gene coding for human 11β-HSD2; expressed in transfected cells; host or cells: HEK293; experiment: Cellular 11β-HSD2 enzyme inhibition assay (HEK293 stably transfected); type: cell-based; details: inferred from 54% inhibition at 10 µM in HEK293 cells; read-out: IC50 against 11β-HSD2
Sequence (P80365 whole entry): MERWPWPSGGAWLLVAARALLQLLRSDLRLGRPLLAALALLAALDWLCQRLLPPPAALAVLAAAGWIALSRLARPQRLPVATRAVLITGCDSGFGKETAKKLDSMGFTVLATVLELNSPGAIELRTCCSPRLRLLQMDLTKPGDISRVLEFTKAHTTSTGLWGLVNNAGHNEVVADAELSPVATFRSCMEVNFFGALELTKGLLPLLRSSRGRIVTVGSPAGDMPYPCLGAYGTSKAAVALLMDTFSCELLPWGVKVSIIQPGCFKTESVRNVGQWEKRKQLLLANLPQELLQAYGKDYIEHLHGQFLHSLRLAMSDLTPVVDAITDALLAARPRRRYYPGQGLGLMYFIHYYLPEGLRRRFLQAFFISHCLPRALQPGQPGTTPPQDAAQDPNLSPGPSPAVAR
measure: IC50

Input: Read the entry N#Cc1ccc(N2CCN(c3ccc(C(=O)N4CC5C6C=CC(C7CC67)C5C4)cn3)CC2)cc1 (stereo not shown) and write its reported IC50.
Output: ~10 µM

###

For each entry below, report its melting point value.

Input: For O=C(c1cccs1)N1CC2C3C=CC(C4CC34)C2C1 (stereo not drawn) , write its melting point.
Output: 104 to 105 °C

Input: Quickly give me recorded melting point for O=C(c1ccccc1)N1CC2C3C=CC(C4CC34)C2C1 (stereo not drawn)
Output: 65 to 66 °C

Input: Tell us which melting point value is on record for O=C(c1ccccn1)N1CC2C3C=CC(C4CC34)C2C1 (stereo not drawn)
Output: 110 to 111 °C

Input: Look up and report measured melting point for this entry: O=C(c1ccc(N2CCN(c3ccc(C(F)(F)F)cc3)CC2)nc1)N1CC2C3C=CC(C4CC34)C2C1 (stereo not drawn)
Output: 157 to 158 °C

Input: Name the recorded melting point of the molecule listed here: CC(C)(C)C(=O)N1CC2C3C=CC(C4CC34)C2C1 (stereo not drawn)
Output: 91 to 92 °C

Input: Note melting point for the molecule shown: O=C(C1CC=CCC1)N1CC2C3C=CC(C4CC34)C2C1 (stereo not drawn)
Output: 78 to 79 °C

Input: Look up melting point of CC(=O)N1CCC(C(=O)N2CC3C4C=CC(C5CC45)C3C2)CC1 (stereo not drawn) and report it.
Output: 134 to 135 °C

Input: Assign melting point to the following record: O=C(c1ccc(N2CCN(c3ccccc3)CC2)nc1)N1CC2C3C=CC(C4CC34)C2C1 (stereo not drawn)
Output: 90 to 91 °C

Input: For the molecule N#Cc1ccc(N2CCN(c3ccc(C(=O)N4CC5C6C=CC(C7CC67)C5C4)cn3)CC2)cc1 (stereo not drawn) , give its reported melting point.
Output: 160 to 161 °C
